The following compounds are shown together with reported inhibition in vivo at 500 µg/ear values.
System: mouse ear edema induced by PMA (phorbol myristate acetate)
assay-comment: Acute contact dermatitis: TPA-induced auricular edema
Format: in vivo, CD1 mice
settings: 500 μg/ear topical in TPDS, 30 min before TPA 0.01%, sacrifice 6 h later, method a: weighing a defined portion of auricular pinna
Just the number please, in %, no unit attached.

{"columns": ["compound", "inhibition in vivo at 500 µg/ear (%)"],
 "data": [
  ["CC[C@H]1OC(=O)[C@H](C)[C@@H](O)[C@H](C)[C@@H](O[C@@H]2O[C@H](C)CC[C@H]2O)C(C)(O)C[C@@H](C)CN(C)[C@H](C)[C@@H](O)[C@]1(C)O (stereo partly shown)", 16.5],
  ["CC[C@H]1OC(=O)[C@H](C)[C@@H](O[C@H]2C[C@@](C)(OC)[C@@H](O)[C@H](C)O2)[C@H](C)[C@@H](O[C@@H]2O[C@H](C)C[C@H](N(C)C)[C@H]2O)[C@](C)(O)C[C@@H](C)C(=O)[C@H](C)[C@@H](O)[C@]1(C)O [Erythromycin, erythromycin, reference compound]", 42],
  ["CC[C@H]1OC(=O)[C@H](C)[C@@H](O)[C@H](C)[C@@H](O[C@@H]2O[C@H](C)C[C@H](N(C)C)[C@H]2O)C(C)(O)C[C@@H](C)CN(CCCNCc2c[nH]cn2)[C@H](C)[C@@H](O)[C@]1(C)O (stereo partly shown)", 29.7]
]}

Kindly consider the entry below.
The measured inhibition in vivo at 500 µg/ear associated with CC[C@H]1OC(=O)[C@H](C)[C@@H](O)[C@H](C)[C@@H](O[C@@H]2O[C@H](C)C[C@H]([N+](C)(C)[O-])[C@H]2O)C(C)(O)C[C@@H](C)CN(C)[C@H](C)[C@@H](O)[C@]1(C)O (stereo partly shown) reads 56.7

----------
Test system: mouse ear edema induced by PMA (phorbol myristate acetate)
assay-comment: Acute contact dermatitis: TPA-induced auricular edema
Assay type: in vivo, CD1 mice
settings: 500 μg/ear topical in TPDS, 30 min before TPA 0.01%, sacrifice 6 h later, method a: weighing a defined portion of auricular pinna
Kind request: treat 40% as inclusive, so inhibition in vivo at 500 µg/ear at 40% or higher is rule met, anything lower is rule not met.

These recorded examples may help you get a feel for the data.
{"columns": ["molecule", "class"],
 "data": [
  ["CC[C@H]1OC(=O)[C@H](C)[C@@H](O)[C@H](C)[C@@H](O[C@@H]2O[C@H](C)C=C[C@H]2O)C(C)(O)C[C@@H](C)CN(C)[C@H](C)[C@@H](O)[C@]1(C)O (some centres unmarked)", "rule not met"],
  ["CC[C@H]1OC(=O)[C@H](C)[C@@H](O)[C@H](C)[C@@H](O[C@@H]2O[C@H](C)CC[C@H]2O)C(C)(O)C[C@@H](C)CN(CCCNCCNCc2nccs2)[C@H](C)[C@@H](O)[C@]1(C)O (some centres unmarked)", "rule met"]
]}

Is inhibition in vivo at 500 µg/ear for CC[C@H]1OC(=O)[C@H](C)[C@@H](O)[C@H](C)[C@@H](O[C@@H]2O[C@H](C)C[C@H]([N+](C)(C)[O-])[C@H]2O)C(C)(O)C[C@@H](C)C[N+](C)([O-])[C@H](C)[C@@H](O)[C@]1(C)O (some centres unmarked) at or above 40%?
rule not met
